biological target: IRAK4 enzyme (Homo sapiens (Human)); assay: IRAK4 Biochemical Assay (TR-FRET, STK1 KinEASE); details: second part of Table 2, compounds 33-343; unit inferred; read-out: IC50 IRAK4-HTBS
Sequence (Q9NWZ3 whole entry): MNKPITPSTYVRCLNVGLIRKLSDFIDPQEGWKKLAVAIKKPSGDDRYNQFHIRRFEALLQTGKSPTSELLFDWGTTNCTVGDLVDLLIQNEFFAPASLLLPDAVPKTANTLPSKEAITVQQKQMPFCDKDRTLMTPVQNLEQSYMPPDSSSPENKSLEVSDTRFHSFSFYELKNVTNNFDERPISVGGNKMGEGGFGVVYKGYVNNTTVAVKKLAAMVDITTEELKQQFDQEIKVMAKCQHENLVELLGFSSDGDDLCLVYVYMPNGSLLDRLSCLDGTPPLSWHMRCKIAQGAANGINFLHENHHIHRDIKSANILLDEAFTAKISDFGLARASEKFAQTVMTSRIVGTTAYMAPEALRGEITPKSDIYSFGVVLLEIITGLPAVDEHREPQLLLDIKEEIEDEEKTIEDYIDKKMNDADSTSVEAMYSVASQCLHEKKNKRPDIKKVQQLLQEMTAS
Result Type: pIC50
Answers are plain numbers, as −log10 of the molar value.

The following molecules have reported results that may help.
CC(=O)N[C@H]1CC[C@H](c2nnc(-c3cnc(-c4ccc5cc(C#N)cnn45)cc3N[C@H]3CC[C@@H](O)CC3)s2)CC1 :: 9.03
CC(C)Nc1cc(-c2ccc3cc(C#N)cnn23)ncc1-c1nncs1 :: 9.01
CC(C)(O)[C@@H]1C[C@@H]1c1nnc(-c2cnc(-c3ccc4cc(C#N)cnn34)cc2NC2COC2)s1 (single isomer, unassigned; isomer 3) [136 Isomer 3] :: 9.19
CC(C)Nc1cc(-c2ccc3cc(C#N)cnn23)ncc1-c1nnc([C@@H]2C[C@H]2C(C)(C)O)s1 (single isomer, unassigned; isomer 1) [132 Isomer 1] :: 8.89
CC(C)(O)[C@@H]1C[C@H]1c1nnc(-c2cnc(-c3ccc4cc(C#N)cnn34)cc2NC2COC2)s1 (single isomer, unassigned; isomer 2) [136 Isomer 2] :: 9.28

Turning to the following molecule.
Asked: Look up pIC50 for this molecule: C[C@]1(O)CC[C@@H](c2nnc(-c3cnc(-c4ccc5cc(C#N)cnn45)cc3NC3COC3)s2)CC1
Given back: 9.17

* * *

target: IRAK4 enzyme (Homo sapiens (Human)); test: IRAK4 Biochemical Assay (TR-FRET, STK1 KinEASE)
Result Type: pIC50
Numbers only, as −log10 of the molar value.

The following compounds have reported results that may help.
CC(C)Nc1cc(-c2ccc3cc(C#N)cnn23)ncc1-c1nnc(N2CC3(COC3)C2)s1 :: 9.54
CC(C)Nc1cc(-c2ccc3cc(C#N)cnn23)ncc1-c1nnc(C2CCN(CC(F)F)CC2)s1 :: 8.83
CC(=O)N[C@H]1CCCN(c2nnc(-c3cnc(-c4ccc5cc(C#N)cnn45)cc3NC(C)C)s2)C1 :: 9.28
CC(=O)N[C@@H]1[C@@H]2CC[C@H]1CN(c1nnc(-c3cnc(-c4ccc5cnc(N[C@@H]6CCCC[C@@H]6N)nn45)cc3N[C@H](C)C#N)s1)C2 :: 9.00
CC(C)Nc1cc(-c2ccc3cc(C#N)cnn23)ncc1-c1nnc(N2CC3CC(C2)N3C(=O)C(C)(C)O)s1 :: 9.17
CC(C)Nc1cc(-c2ccc3cc(C#N)cnn23)ncc1-c1nnc(N2CC3CCC(C2)N3C(=O)C2CC2)s1 :: 8.97
CC(=O)N[C@H]1CCCN(C(=O)c2nnc(-c3cnc(-c4ccc5cc(C#N)cnn45)cc3NC(C)C)s2)C1 :: 8.72
CC(C)Nc1cc(-c2ccc3cc(C#N)cnn23)ncc1-c1nnc(N2CC3CC(C2)O3)s1 :: 9.46

Please state pIC50 for every compound in the list that follows.
1. CC(C)Nc1cc(-c2ccc3cc(C#N)cnn23)ncc1-c1nnc(N2CC3CC(C2)N3C(=O)OC(C)(C)C)s1
2. CC(C)Nc1cc(-c2ccc3cc(C#N)cnn23)ncc1-c1nnc([C@H]2CC[C@H](NC(=O)C3(C)COC3)CC2)s1
3. CC(=O)NC12C3C4C1C1C2C3C41c1nnc(-c2cnc(-c3ccc4cc(C#N)cnn34)cc2NC(C)C)s1 (stereo not shown)
4. CC(=O)NC12CCC(c3nnc(-c4cnc(-c5ccc6cc(C#N)cnn56)cc4NC4CCOCC4)s3)(CC1)CC2
5. CC(C)Nc1cc(-c2ccc3cc(C#N)cnn23)ncc1-c1nnc([C@H]2C[C@H](NC3COC3)C2)s1
6. CC(=O)N[C@H]1CCN(c2nnc(-c3cnc(-c4ccc5cc(C#N)cnn45)cc3NC(C)C)s2)CC1(F)F
7. CC(C)Nc1cc(-c2ccc3cc(C#N)cnn23)ncc1-c1nnc(N2C[C@H]3CC[C@@H](C2)[C@@H]3NC(=O)N2CCN(C)CC2)s1

Given back:
8.49
9.26
8.80
9.24
9.18
9.03
9.24

Please state pIC50 for every compound in the list that follows.
1. CC(=O)N[C@@H]1CCN(C(=O)c2cnc(-c3cnc(-c4ccc5cc(C#N)cnn45)cc3NC(C)C)s2)C1
2. CC(=O)NC12CCC(c3nnc(-c4cnc(-c5ccc6cc(C#N)cnn56)cc4NC(C)C)s3)(CC1)OC2
3. CC(=O)N[C@@H]1CCN(c2nnc(-c3cnc(-c4ccc5cc(C#N)cnn45)cc3NC(C)C)s2)C[C@H]1O
4. CC(=O)NC1CCC2(CC1)CN(c1nnc(-c3cnc(-c4ccc5cc(C#N)cnn45)cc3NC(C)C)s1)C2
5. CC(=O)N1[C@@H]2COC[C@H]1CN(c1nnc(-c3cnc(-c4ccc5cc(C#N)cnn45)cc3NC(C)C)s1)C2
6. CC(=O)N1CC2(C1)CN(c1nnc(-c3cnc(-c4ccc5cc(C#N)cnn45)cc3NC(C)C)s1)C2
7. CC(C)Nc1cc(-c2ccc3cc(C#N)cnn23)ncc1-c1nnc(C(=O)N2CCC[C@@H]2CN)s1
8. CC(=O)N[C@H]1C[C@@H]2C[C@H]1CN2c1nnc(-c2cnc(-c3ccc4cc(C#N)cnn34)cc2NC(C)C)s1

Given back:
1: 8.51; 2: 8.86; 3: 9.52; 4: 8.94; 5: 8.61; 6: 9.35; 7: 9.13; 8: 9.27
